Measured values drawn from ChEMBL document CHEMBL2216752 for this set.

Molecular target: Carnitine O-palmitoyltransferase 1, muscle isoform (Homo sapiens)
Sequence (Q92523 whole entry): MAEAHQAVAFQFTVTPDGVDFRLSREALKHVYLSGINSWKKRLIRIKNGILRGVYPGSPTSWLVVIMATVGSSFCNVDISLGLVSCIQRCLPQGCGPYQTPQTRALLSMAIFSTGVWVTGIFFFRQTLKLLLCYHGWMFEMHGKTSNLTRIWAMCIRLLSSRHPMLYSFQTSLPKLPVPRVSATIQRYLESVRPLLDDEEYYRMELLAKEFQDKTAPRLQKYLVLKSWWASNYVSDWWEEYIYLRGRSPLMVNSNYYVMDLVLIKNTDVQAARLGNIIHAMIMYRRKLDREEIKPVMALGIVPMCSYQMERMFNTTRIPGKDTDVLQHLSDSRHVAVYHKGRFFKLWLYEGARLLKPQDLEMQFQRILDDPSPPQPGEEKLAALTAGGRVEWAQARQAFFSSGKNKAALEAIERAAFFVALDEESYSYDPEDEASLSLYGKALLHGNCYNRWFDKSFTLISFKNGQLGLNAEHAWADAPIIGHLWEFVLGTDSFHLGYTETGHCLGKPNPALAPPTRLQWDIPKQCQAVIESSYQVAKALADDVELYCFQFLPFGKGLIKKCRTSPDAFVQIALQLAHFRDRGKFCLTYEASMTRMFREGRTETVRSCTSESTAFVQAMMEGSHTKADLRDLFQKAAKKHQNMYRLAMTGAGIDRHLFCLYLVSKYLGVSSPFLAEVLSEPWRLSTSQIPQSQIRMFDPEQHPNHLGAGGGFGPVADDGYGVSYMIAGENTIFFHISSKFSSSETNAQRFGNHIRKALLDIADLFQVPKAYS
Assay: Inhibition of CPT1B in heart mitochondria
pIC50: −log10 of the molar value.

- smiles-data: "O=C(O)C(=O)c1ccc(O)cc1"
  pIC50: 4.96

----------
molecular target: Carnitine O-palmitoyltransferase 1, liver isoform (Homo sapiens); assay: Inhibition of human CPT1A
Sequence (P50416 whole entry, canonical isoform): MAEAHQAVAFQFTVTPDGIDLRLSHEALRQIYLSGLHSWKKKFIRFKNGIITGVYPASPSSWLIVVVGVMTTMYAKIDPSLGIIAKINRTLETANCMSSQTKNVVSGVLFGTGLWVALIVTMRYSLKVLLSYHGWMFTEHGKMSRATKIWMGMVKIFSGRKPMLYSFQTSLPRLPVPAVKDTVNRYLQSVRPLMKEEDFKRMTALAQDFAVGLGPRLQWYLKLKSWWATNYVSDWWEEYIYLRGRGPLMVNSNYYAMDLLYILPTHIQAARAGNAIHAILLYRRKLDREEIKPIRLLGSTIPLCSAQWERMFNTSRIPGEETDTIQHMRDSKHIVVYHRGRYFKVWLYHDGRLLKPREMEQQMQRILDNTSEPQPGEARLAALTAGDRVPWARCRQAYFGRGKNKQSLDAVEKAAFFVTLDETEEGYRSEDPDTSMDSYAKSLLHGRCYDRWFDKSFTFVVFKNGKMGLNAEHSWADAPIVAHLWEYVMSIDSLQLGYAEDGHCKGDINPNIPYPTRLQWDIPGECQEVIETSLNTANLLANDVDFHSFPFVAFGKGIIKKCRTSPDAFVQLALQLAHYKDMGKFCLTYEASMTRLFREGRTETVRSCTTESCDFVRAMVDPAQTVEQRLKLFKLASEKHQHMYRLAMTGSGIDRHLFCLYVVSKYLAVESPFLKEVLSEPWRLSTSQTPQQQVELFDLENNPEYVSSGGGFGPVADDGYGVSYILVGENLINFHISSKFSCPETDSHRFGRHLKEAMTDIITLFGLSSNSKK
IC50 values by entry
measurement-kind: IC50

- compound: "COc1ccc(C)cc1S(=O)(=O)N1CCCc2ccc(C(=O)Nc3ccc(CC(=O)O)cc3)cc21"
  measurement-kind: "IC50"
  result: "0.16 µM"
- compound: "COc1ccc(Cl)cc1S(=O)(=O)N1CCc2ccc(C(=O)Nc3ccc(C(=O)O)cc3)cc21"
  measurement-kind: "IC50"
  result: "0.021 µM"
- compound: "O=C(O)C(=O)c1ccc(OCCOc2ccc3ccccc3c2)s1"
  measurement-kind: "IC50"
  result: "2.4 µM"
- compound: "CCCCCCOc1cccc(OCCCCNC(=O)N[C@H](CC(=O)[O-])C[N+](C)(C)C)c1"
  measurement-kind: "IC50"
  result: "1.7 µM"
- compound: "C[N+](C)(C)C[C@H](N)CC(=O)[O-]"
  measurement-kind: "IC50"
  result: "76.4 µM"
- compound: "N[C@H](C(=O)O)c1ccc(O)cc1"
  measurement-kind: "IC50"
  result: "> 100 µM"
- compound: "CCCCCCCCCCCCCCCC(=O)N[C@H](CC(=O)[O-])C[N+](C)(C)C"
  measurement-kind: "IC50"
  result: "2.67 µM"
- compound: "COc1ccc(-c2noc([C@H]3CCCCN3C(=O)COc3ccccc3)n2)cc1"
  measurement-kind: "IC50"
  result: "0.065 µM"
- compound: "O=C(O)C(=O)c1ccc(O)cc1"
  measurement-kind: "IC50"
  result: "> 100 µM"
- compound: "C1CCC(C(CC2CCCCN2)C2CCCCC2)CC1 (stereo not given)"
  measurement-kind: "IC50"
  result: "> 100 µM"

----------
assay: Inhibition of rat FAO
pIC50: −log10 of the molar value.

- compound: "CCCCCCOc1cccc(OCCCCNC(=O)N[C@H](CC(=O)[O-])C[N+](C)(C)C)c1"
  inequality-sign: "="
  pIC50: 7.52
- compound: "O=C(O)[C@@]1(CCCCCCOc2ccccc2)CO1 [DECHLOROETOMOXIR]"
  inequality-sign: "="
  pIC50: 5.36
- compound: "O=C([O-])C1(CCCCCc2ccc(Cl)cc2)CO1.[Na+] (racemic)"
  inequality-sign: "="
  pIC50: 4.02
- compound: "CCCCCCCCCCCCCCNC(=O)N[C@H](CC(=O)[O-])C[N+](C)(C)C"
  inequality-sign: "="
  pIC50: 6.01
- compound: "N[C@H](C(=O)O)c1ccc(O)cc1 [OXFENICINE]"
  inequality-sign: "<"
  pIC50: 4.00
- compound: "O=C(O)C(=O)c1ccc(OCCOc2ccc3ccccc3c2)s1"
  inequality-sign: "<"
  pIC50: 4.00
- compound: "C=C1C(=O)O[C@H](CCCCCCCC)[C@H]1C(=O)O"
  inequality-sign: "<"
  pIC50: 4.00
- compound: "CCCCCCCCCCCCCCCC(=O)N[C@H](CC(=O)[O-])C[N+](C)(C)C [PALMITOYLAMINOCARNITINE]"
  inequality-sign: "="
  pIC50: 6.57
- compound: "O=C(O)C(=O)c1ccc(O)cc1"
  inequality-sign: "<"
  pIC50: 4.00
- compound: "COc1ccc(CN2CCNCC2)c(OC)c1OC [TRIMETAZIDINE]"
  inequality-sign: "<"
  pIC50: 4.00
- compound: "C1CCC(C(CC2CCCCN2)C2CCCCC2)CC1 (stereo not drawn) [PERHEXILINE]"
  inequality-sign: "="
  pIC50: 4.67
- compound: "CCOC(=O)[C@@]1(CCCCCCOc2ccc(Cl)cc2)CO1 [ETOMOXIR]"
  inequality-sign: "="
  pIC50: 6.47
- compound: "CCCCCCCC[C@H]1OC(=O)C(C)=C1C(=O)O"
  inequality-sign: "<"
  pIC50: 4.00

----------
test: Inhibition of carnitine palmitoyltransferase in rat heart mitochondria assessed as conversion of [14C]palmitic acid to [14C]palmitoylcarnitine by radiometric assay
IC50 values by entry

- smiles-data: "CCCCCCCCCCCCCCNC(=O)N[C@H](CC(=O)[O-])C[N+](C)(C)C"
  IC50 (µM): 43.4
- smiles-data: "CCCCCCCCCCCCS(=O)(=O)N[C@H](CC(=O)[O-])C[N+](C)(C)C"
  IC50 (µM): 3.4
- smiles-data: "CCCCCCOc1cccc(OCCCCNC(=O)N[C@H](CC(=O)[O-])C[N+](C)(C)C)c1"
  IC50 (µM): 5.44
- smiles-data: "CCCCCCCCCCCCCCOP(=O)([O-])O[C@H](CC(=O)O)C[N+](C)(C)C"
  IC50 (µM): 62
- smiles-data: "CCCCCCOc1cccc(OCCCCNC(=O)N[C@H](CC(=O)[O-])C[P+](C)(C)C)c1"
  IC50 (µM): 57.3
- smiles-data: "CCCCCCCCCCCNS(=O)(=O)N[C@H](CC(=O)[O-])C[N+](C)(C)C"
  IC50 (µM): 5.8

----------
assay: Inhibition of Phospholipase A2

- compound: "COC(=O)C1(C(F)CCCCc2ccccc2)CO1 (stereo unspecified)"
  unit-symbol: "nM"
  IC50: 2600

----------
target: UniProtKB P23786; test: Competitive inhibition of CPT2
measurement-kind: Ki

- compound: "CCCCCCCCCCCCCCC[C@@]1(O)C[N+](C)(C)C[C@@H](CC(=O)[O-])O1 (racemic)"
  measurement-kind: "Ki"
  result: "0.16 µM"

----------
test: Toxicity in po dosed Sprague-Dawley rat assessed as hypoglycemic coma; format: organism-based; conditions: in vivo
LD50 values by entry
measurement-kind: LD50 (mg/kg)

- compound: "CCOC(=O)C1(CCCCCc2ccc(Cl)cc2)CO1 (racemic)"
  readout-number: 275
- compound: "O=C([O-])C1(CCCCCc2ccc(Cl)cc2)CO1.[Na+] (racemic)"
  readout-number: 486

----------
assay: Inhibition of carnitine palmitoyltransferase in fasted rat detergent lysed liver mitochondria by DTNB based spectrophotometric assay
pIC50: −log10 of the molar value.

- compound: "CCCCCCCCCCCCCCCC(=O)NC(CC(=O)[O-])C[N+](C)(C)C (racemic)"
  pIC50: 7.30

----------
Target: Carnitine O-palmitoyltransferase 2, mitochondrial (Homo sapiens, UniProt P23786)
Sequence (P23786 whole entry): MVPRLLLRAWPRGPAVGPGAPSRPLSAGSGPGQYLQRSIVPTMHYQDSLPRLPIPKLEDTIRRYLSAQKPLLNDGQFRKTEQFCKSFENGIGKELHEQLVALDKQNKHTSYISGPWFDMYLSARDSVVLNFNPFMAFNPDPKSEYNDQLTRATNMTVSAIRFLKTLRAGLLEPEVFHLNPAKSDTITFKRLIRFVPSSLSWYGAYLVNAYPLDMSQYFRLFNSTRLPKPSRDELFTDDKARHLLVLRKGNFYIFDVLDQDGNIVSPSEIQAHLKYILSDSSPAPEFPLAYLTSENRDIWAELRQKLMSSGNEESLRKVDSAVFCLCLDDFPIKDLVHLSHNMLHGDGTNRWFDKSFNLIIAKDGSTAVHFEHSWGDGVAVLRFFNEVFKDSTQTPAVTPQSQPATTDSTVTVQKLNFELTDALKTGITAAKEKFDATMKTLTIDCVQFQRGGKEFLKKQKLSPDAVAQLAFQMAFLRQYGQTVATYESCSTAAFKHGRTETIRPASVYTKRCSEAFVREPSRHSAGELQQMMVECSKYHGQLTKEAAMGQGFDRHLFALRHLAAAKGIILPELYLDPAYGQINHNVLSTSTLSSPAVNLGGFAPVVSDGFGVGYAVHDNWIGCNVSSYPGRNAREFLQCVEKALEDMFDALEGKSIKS
// boundary case: IC50 equal to 4 µM maps to -1; strictly smaller maps to 1

- molecule: "COc1ccc(C)cc1S(=O)(=O)N1CCCc2ccc(C(=O)Nc3ccc(CC(=O)O)cc3)cc21"
  class: 1
- molecule: "CCCCCCOc1cccc(OCCCCNC(=O)N[C@H](CC(=O)[O-])C[N+](C)(C)C)c1"
  class: -1
- molecule: "COc1ccc(CN2CCNCC2)c(OC)c1OC"
  class: -1
- molecule: "CCCCCCCCCCCCCCNC(=O)N[C@H](CC(=O)[O-])C[N+](C)(C)C"
  class: 1
- molecule: "C1CCC(C(CC2CCCCN2)C2CCCCC2)CC1 (stereo unspecified)"
  class: -1
